These measurements were taken from patent US20240174662A1.

biological target: SIK2 (Homo sapiens (Human)); assay: SIK2 Enzymatic Assay Version 2 (High ATP); type: biochemical; settings: 3 mM ATP and 200 μM HDAC5tide final, ADP-Glo Max luminescence
pIC50: −log10 of the molar value.
Returns Yes if the recorded pIC50 is greater than or equal to 8, and No otherwise.

MOLECULE: Cc1onc(OC[C@H]2CN(C)CCO2)c1-c1ccn2nc(NC(=O)C3CC3)cc2c1
TARGET SYSTEM: SIK2 (Homo sapiens (Human))
GROUP LABEL: No

MOLECULE: C[C@H](O)CN1CC[C@@H]1COc1cnn(C)c1-c1ccn2nc(NC(=O)C3CC3)cc2c1
TARGET SYSTEM: SIK2 (Homo sapiens (Human))
GROUP LABEL: Yes

MOLECULE: CN1CC[C@@H]1COc1cnn(C)c1-c1ccn2nc(NC(=O)[C@H]3C[C@H]3c3ccccc3)cc2c1 [Example 158]
TARGET SYSTEM: SIK2 (Homo sapiens (Human))
GROUP LABEL: No

MOLECULE: COc1nnc(Nc2cc3cc(-c4c(OC[C@H]5CCN5C)cnn4C)ccn3n2)cc1C [Example 121]
TARGET SYSTEM: SIK2 (Homo sapiens (Human))
GROUP LABEL: Yes

MOLECULE: CO[C@H]1CN(C)C[C@H]1Oc1cnn(C)c1-c1ccn2nc(NC(=O)C3CC3)cc2c1 (single isomer, unassigned)
TARGET SYSTEM: SIK2 (Homo sapiens (Human))
GROUP LABEL: No

MOLECULE: COc1nc(C)cc(Nc2cc3cc(-c4c(OC[C@H]5CCN5C)cnn4C)ccn3n2)n1
TARGET SYSTEM: SIK2 (Homo sapiens (Human))
GROUP LABEL: Yes

----------
target: SIK2 (Homo sapiens (Human), UniProt Q9H0K1); test: SIK2 Enzymatic Assay Version 2 (High ATP); type: biochemical; settings: 3 mM ATP and 200 μM HDAC5tide final, ADP-Glo Max luminescence
Sequence (Q9H0K1 whole entry, species assumed): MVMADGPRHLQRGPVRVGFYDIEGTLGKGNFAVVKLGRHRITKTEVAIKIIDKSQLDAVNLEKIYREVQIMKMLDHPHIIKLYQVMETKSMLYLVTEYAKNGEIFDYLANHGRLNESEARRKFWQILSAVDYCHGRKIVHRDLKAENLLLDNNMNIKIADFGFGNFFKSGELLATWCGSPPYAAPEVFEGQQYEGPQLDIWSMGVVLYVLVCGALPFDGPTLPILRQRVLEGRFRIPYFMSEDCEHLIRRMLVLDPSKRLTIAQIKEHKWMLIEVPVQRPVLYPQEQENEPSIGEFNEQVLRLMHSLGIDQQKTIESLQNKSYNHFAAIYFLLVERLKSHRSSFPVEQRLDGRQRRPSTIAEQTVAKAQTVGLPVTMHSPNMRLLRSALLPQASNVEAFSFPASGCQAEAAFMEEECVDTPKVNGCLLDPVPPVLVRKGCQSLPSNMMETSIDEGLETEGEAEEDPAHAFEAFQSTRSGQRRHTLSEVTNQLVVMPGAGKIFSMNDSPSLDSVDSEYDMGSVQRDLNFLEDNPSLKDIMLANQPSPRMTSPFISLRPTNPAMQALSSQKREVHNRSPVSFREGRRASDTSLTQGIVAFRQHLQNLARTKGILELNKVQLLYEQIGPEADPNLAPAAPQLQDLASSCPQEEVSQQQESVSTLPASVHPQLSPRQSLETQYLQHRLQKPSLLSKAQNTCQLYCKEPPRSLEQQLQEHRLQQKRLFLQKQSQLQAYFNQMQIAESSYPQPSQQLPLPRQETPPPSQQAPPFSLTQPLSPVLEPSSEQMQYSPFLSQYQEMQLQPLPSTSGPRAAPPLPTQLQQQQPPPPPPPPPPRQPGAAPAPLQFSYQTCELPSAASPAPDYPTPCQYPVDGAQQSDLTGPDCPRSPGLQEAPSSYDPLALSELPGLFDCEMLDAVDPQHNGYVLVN
Form field: IC50 (one value per entry).

COMPOUND: Cc1snc(OC[C@H]2CNCCO2)c1-c1ccn2nc(NC(=O)C3CC3)cc2c1
UNIT OF MEASUREMENT: nM
BOUND TYPE: =
IC50: 32.4
//
COMPOUND: Cc1cnc(Nc2cc3cc(-c4c(OC[C@H]5CCN5CCF)cnn4C)ccn3n2)cn1
UNIT OF MEASUREMENT: nM
BOUND TYPE: =
IC50: 1.8
//
COMPOUND: Cc1cc(Nc2cc3cc(-c4c(OC[C@H]5CCN5)noc4C)ccn3n2)nc(C)n1
UNIT OF MEASUREMENT: nM
BOUND TYPE: =
IC50: 50.8
//
COMPOUND: Cc1onc(OC[C@H]2COCCN2)c1-c1ccn2nc(NC(=O)C3CC3)cc2c1
UNIT OF MEASUREMENT: nM
BOUND TYPE: =
IC50: 995
//
COMPOUND: CCN1CC[C@@H]1COc1cnn(C)c1-c1ccn2nc(Nc3cc(C)c(=O)n(C)n3)cc2c1
UNIT OF MEASUREMENT: nM
BOUND TYPE: <
IC50: 0.847
//
COMPOUND: CN1CC[C@@H]1COc1cnn(C)c1-c1ccn2nc(NC(=O)C3CC3(F)F)cc2c1 (some centres unmarked)
UNIT OF MEASUREMENT: nM
BOUND TYPE: =
IC50: 52.1
//
COMPOUND: Cc1cc(Nc2cc3cc(-c4c(OC[C@H]5CCN5C)cnn4C)ccn3n2)nc(NC2CCCC2)n1
UNIT OF MEASUREMENT: nM
BOUND TYPE: <
IC50: 0.847
//
COMPOUND: Cc1onc(O[C@@H]2CCNC2)c1-c1ccn2nc(NC(=O)C3CC3)cc2c1
UNIT OF MEASUREMENT: nM
BOUND TYPE: =
IC50: 144

----------
target: SIK2 (Homo sapiens (Human), UniProt Q9H0K1); assay: SIK2 Enzymatic Assay Version 2 (High ATP); type: biochemical; conditions: 3 mM ATP and 200 μM HDAC5tide final, ADP-Glo Max luminescence

COMPOUND: Cc1nc(C)c(C)c(Nc2cc3cc(-c4c(OC[C@H]5CCN5C)cnn4C)ccn3n2)n1 [Example 57]
TARGET SYSTEM: SIK2 (Homo sapiens (Human), UniProt Q9H0K1)
IC50, nM: 471
//
COMPOUND: Cc1onc(O[C@H]2CNCC2F)c1-c1ccn2nc(NC(=O)C3CC3)cc2c1 (single isomer, unassigned) [Example 210]
TARGET SYSTEM: SIK2 (Homo sapiens (Human), UniProt Q9H0K1)
IC50, nM: 7.5
//
COMPOUND: CCN1CCC[C@@H]1COc1cnn(C)c1-c1ccn2nc(NC(=O)C3CC3)cc2c1 [Example 427]
TARGET SYSTEM: SIK2 (Homo sapiens (Human), UniProt Q9H0K1)
IC50, nM: 73.5
//
COMPOUND: CCCN1CC[C@@H]1COc1cnn(C)c1-c1ccn2nc(NC(=O)C3CC3)cc2c1 [Example 246]
TARGET SYSTEM: SIK2 (Homo sapiens (Human), UniProt Q9H0K1)
IC50, nM: 1.6
//
COMPOUND: Cc1cc(Nc2cc3cc(-c4c(O[C@H]5C[C@H]6CC[C@@H]5O6)cnn4C)ccn3n2)nc(C)n1 (single isomer, unassigned) [Example 352]
TARGET SYSTEM: SIK2 (Homo sapiens (Human), UniProt Q9H0K1)
IC50, nM: 66.8
//
COMPOUND: Cc1cc(Nc2cc3cc(-c4c(O[C@@H]5CNC[C@@H]5F)noc4C)ccn3n2)nc(C)n1 [Example 92]
TARGET SYSTEM: SIK2 (Homo sapiens (Human), UniProt Q9H0K1)
IC50, nM: 4.3
//
COMPOUND: Cc1nccc(Nc2cc3cc(-c4c(OC[C@H]5CCN5C)cnn4C)ccn3n2)n1 [Example 64]
TARGET SYSTEM: SIK2 (Homo sapiens (Human), UniProt Q9H0K1)
IC50, nM: 2
//
COMPOUND: Cn1ncc(CO[C@H]2C[C@H]3COC[C@@H](C2)N3)c1-c1ccn2nc(NC(=O)C3CC3)cc2c1 [Example 183]
TARGET SYSTEM: SIK2 (Homo sapiens (Human), UniProt Q9H0K1)
IC50, nM: 11.7

----------
target: SIK2 (Homo sapiens (Human)); test: SIK2 Enzymatic Assay Version 2 (High ATP); format: biochemical; details: 3 mM ATP and 200 μM HDAC5tide final, ADP-Glo Max luminescence
pIC50: −log10 of the molar value.
MEASURED ENDPOINT: pIC50

COMPOUND: CCN1CC[C@H]1COc1cnn(C)c1-c1ccn2nc(Nc3cnc(C)c(C)n3)cc2c1
BOUND TYPE: =
VALUE: 7.28
//
COMPOUND: CCN1CC[C@@H]1COc1cnn(C)c1-c1ccn2nc(Nc3cc(C)nc(OC)n3)cc2c1
BOUND TYPE: >
VALUE: 9.07
//
COMPOUND: Cc1onc(O[C@@H]2CNC[C@@H]2F)c1-c1ccn2nc(NC(=O)C3CC3)cc2c1 (racemic)
BOUND TYPE: =
VALUE: 7.94
//
COMPOUND: Cc1cc(Nc2cc3cc(-c4c(CO[C@@H]5CN(C)C[C@H]5C)cnn4C)ccn3n2)nc(C)n1 (relative stereo) [Example 365]
BOUND TYPE: =
VALUE: 8.89

----------
Reported IC50 by item:
Target: SIK2 (Homo sapiens (Human), UniProt Q9H0K1)
Experiment: SIK2 Enzymatic Assay Version 2 (High ATP)
Format: biochemical
Settings: 3 mM ATP and 200 μM HDAC5tide final, ADP-Glo Max luminescence
Procedure: All steps were performed at room temperature. Compounds were pre-plated onto an assay plate using an Echo acoustic dispenser (Labcyte, […] or […]) at 80 nL per well. […] The plate was then read on the Pherastar (BMG Labtech) using a luminescence read. […]

MOLECULE: Cc1ncc(Nc2cc3cc(-c4c(O[C@H]5CCN(C)C5)cnn4C)ccn3n2)nc1C
TARGET SYSTEM: SIK2 (Homo sapiens (Human), UniProt Q9H0K1)
IC50 / nM: 55.9
//
MOLECULE: Cn1ncc(O[C@@H]2CCNC2)c1-c1ccn2nc(NC(=O)C3CC3)cc2c1
TARGET SYSTEM: SIK2 (Homo sapiens (Human), UniProt Q9H0K1)
IC50 / nM: 68.7
//
MOLECULE: C[C@H]1CNC[C@H]1Oc1cnn(C)c1-c1ccn2nc(NC(=O)C3CC3)cc2c1 (single isomer, unassigned)
TARGET SYSTEM: SIK2 (Homo sapiens (Human), UniProt Q9H0K1)
IC50 / nM: 140
//
MOLECULE: CN1CC[C@@H]1COc1cnn(C)c1-c1ccn2nc(Nc3ccc(C(=O)NCC(C)(C)O)cn3)cc2c1
TARGET SYSTEM: SIK2 (Homo sapiens (Human), UniProt Q9H0K1)
IC50 / nM: 2.4
//
MOLECULE: Cc1onc(OC[C@H](c2ccccc2)N(C)C)c1-c1ccn2nc(NC(=O)C3CC3)cc2c1
TARGET SYSTEM: SIK2 (Homo sapiens (Human), UniProt Q9H0K1)
IC50 / nM: 7.6
//
MOLECULE: CN1CC[C@@H](OCc2cnn(C)c2-c2ccn3nc(NC(=O)C4CC4)cc3c2)C1
TARGET SYSTEM: SIK2 (Homo sapiens (Human), UniProt Q9H0K1)
IC50 / nM: 52.8
//
MOLECULE: Cc1cncc(Nc2cc3cc(-c4c(CO[C@H]5CN(C)C[C@H]5C)cnn4C)ccn3n2)n1 (stereo in doubt) [Example 370]
TARGET SYSTEM: SIK2 (Homo sapiens (Human), UniProt Q9H0K1)
IC50 / nM: 2.9
//
MOLECULE: CO[C@H]1CNC[C@@H]1Oc1cnn(C)c1-c1ccn2nc(NC(=O)C3CC3)cc2c1 (racemic)
TARGET SYSTEM: SIK2 (Homo sapiens (Human), UniProt Q9H0K1)
IC50 / nM: 116
//
MOLECULE: CN1CCO[C@@H](COc2cnn(C)c2-c2ccn3nc(NC(=O)C4CC4)cc3c2)C1
TARGET SYSTEM: SIK2 (Homo sapiens (Human), UniProt Q9H0K1)
IC50 / nM: 54
//
MOLECULE: Cc1onc(OC[C@@H](N)c2ccccc2)c1-c1ccn2nc(NC(=O)C3CC3)cc2c1
TARGET SYSTEM: SIK2 (Homo sapiens (Human), UniProt Q9H0K1)
IC50 / nM: 1
//
MOLECULE: Cn1ncc(OC[C@H](O)c2ccccc2)c1-c1ccn2nc(NC(=O)C3CC3)cc2c1
TARGET SYSTEM: SIK2 (Homo sapiens (Human), UniProt Q9H0K1)
IC50 / nM: 99.7
//
MOLECULE: C[C@H]1C[C@@H]1C(=O)Nc1cc2cc(-c3c(OC[C@H]4CCN4C)cnn3C)ccn2n1
TARGET SYSTEM: SIK2 (Homo sapiens (Human), UniProt Q9H0K1)
IC50 / nM: 9.1
//
MOLECULE: CN1CC[C@@H]1COc1cnn(C)c1-c1ccn2nc(Nc3ccc(C(=O)NCC(C)(C)C#N)cn3)cc2c1
TARGET SYSTEM: SIK2 (Homo sapiens (Human), UniProt Q9H0K1)
IC50 / nM: 10.3
//
MOLECULE: CN1CCCC[C@H]1COc1cnn(C)c1-c1ccn2nc(NC(=O)C3CC3)cc2c1
TARGET SYSTEM: SIK2 (Homo sapiens (Human), UniProt Q9H0K1)
IC50 / nM: 1380
//
MOLECULE: Cc1cc(Nc2cc3cc(-c4c(O[C@H]5CCN(C)C5)cnn4C)ccn3n2)nnc1C
TARGET SYSTEM: SIK2 (Homo sapiens (Human), UniProt Q9H0K1)
IC50 / nM: 43.5
//
MOLECULE: CCn1ncc(OC[C@@H]2CCN(C)C2)c1-c1ccn2nc(NC(=O)C3CC3)cc2c1
TARGET SYSTEM: SIK2 (Homo sapiens (Human), UniProt Q9H0K1)
IC50 / nM: 97.8
